# assay-procedure: Dissociation constant, pKa of the compound by UV-visible spectrophotometer analysis
# Format: physicochemical
quantity: pKa

{"columns": ["compound", "pKa"],
 "data": [
  ["CN(C)CCCN1c2ccccc2Sc2ccc(C#N)cc21", 9.29],
  ["COc1ccc2c(c1)N(CCCN(C)C)c1ccccc1S2", 9.41],
  ["CCCC(=O)c1ccc2c(c1)N(CCCN1CCN(C)CC1)c1ccccc1S2", 8.1],
  ["N#Cc1ccc2c(c1)N(CCCN1CCC(O)CC1)c1ccccc1S2", 8.5],
  ["CC(CN1CCN(CCOCCO)CC1)CN1c2ccccc2Sc2ccccc21 (stereo not drawn)", 8],
  ["CN1CCN(CCCN2c3ccccc3Sc3ccccc32)CC1", 8.1],
  ["CN(C)CCCN1c2ccccc2Sc2ccccc21", 9.42],
  ["OCCN1CCN(CCCN2c3ccccc3Sc3ccc(Cl)cc32)CC1", 7.9]
]}

----------
# system-under-test: Albumin (Bos taurus, UniProt P02769)
# Sequence (P02769 whole entry): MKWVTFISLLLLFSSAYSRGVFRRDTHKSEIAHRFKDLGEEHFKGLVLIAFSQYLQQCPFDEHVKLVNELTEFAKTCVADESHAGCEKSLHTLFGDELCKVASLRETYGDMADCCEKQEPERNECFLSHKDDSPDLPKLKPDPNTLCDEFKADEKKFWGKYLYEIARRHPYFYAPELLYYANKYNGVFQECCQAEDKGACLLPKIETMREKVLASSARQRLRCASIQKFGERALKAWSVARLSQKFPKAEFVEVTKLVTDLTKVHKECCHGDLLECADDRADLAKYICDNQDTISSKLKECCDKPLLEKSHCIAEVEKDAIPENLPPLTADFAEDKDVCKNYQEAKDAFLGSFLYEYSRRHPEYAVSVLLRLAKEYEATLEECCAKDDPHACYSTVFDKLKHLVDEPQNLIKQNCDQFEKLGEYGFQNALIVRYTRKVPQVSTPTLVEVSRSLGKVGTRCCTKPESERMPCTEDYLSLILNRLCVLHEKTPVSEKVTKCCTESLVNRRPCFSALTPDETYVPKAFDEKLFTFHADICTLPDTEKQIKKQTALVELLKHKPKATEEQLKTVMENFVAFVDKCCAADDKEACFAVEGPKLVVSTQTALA
# assay-procedure: Binding affinity to bovine serum albumin assessed as intrinsic binding constant
# Assay type: ADME
# condition-summary: cattle, isolated protein
quantity: log K

{"columns": ["compound-structure", "system-under-test", "result"],
 "data": [
  ["CN1CCN(CCCN2c3ccccc3Sc3ccccc32)CC1", "Albumin (Bos taurus, UniProt P02769)", 3.33],
  ["CN(C)CCCN1c2ccccc2Sc2ccccc21", "Albumin (Bos taurus, UniProt P02769)", 3.45],
  ["CN(C)CCCN1c2ccccc2Sc2ccc(C(F)(F)F)cc21", "Albumin (Bos taurus, UniProt P02769)", 3.99],
  ["CN1CCN(CCCN2c3ccccc3Sc3ccc(Cl)cc32)CC1", "Albumin (Bos taurus, UniProt P02769)", 3.7]
]}

----------
# system-under-test: Albumin (Bos taurus, UniProt P02769)
# assay-procedure: Binding affinity to bovine serum albumin
# Assay type: ADME
# condition-summary: cattle, isolated protein
quantity: log K

{"columns": ["molecule", "quantity", "result"],
 "data": [
  ["CN1CCN(CCCN2c3ccccc3Sc3ccccc32)CC1 [PERAZINE]", "log K", 4.32],
  ["COc1ccc2c(c1)N(CCCN(C)C)c1ccccc1S2 [METHOXYPROMAZINE]", "log K", 4.11],
  ["CN(C)CCCN1c2ccccc2Sc2ccc(C(F)(F)F)cc21 [TRIFLUPROMAZINE]", "log K", 4.58],
  ["CN(C)CCCN1c2ccccc2Sc2ccccc21 [PROMAZINE]", "log K", 3.95]
]}
